Each entry below lists one item and its recorded residual activity value.
- target_under_test: Serine/threonine-protein kinase 3 (Homo sapiens)
- test_description: Inhibition of human MST2 at 1 uM relative to control; values are per cent of control
measured_attribute: residual activity (%)

* O=C1NC(=O)C2=C1c1cn(c3ccccc13)CCCc1cc(nc(N3CCCC3)c1)CCCn1cc2c2ccccc21 | 100
* CN(C)c1cc2cc(n1)CCCn1cc(c3ccccc31)C1=C(C(=O)NC1=O)c1cn(c3ccccc13)CCC2 | 84
* O=C1NC(=O)C2=C1c1cn(c3ccccc13)CCCc1ccc(c(N3CCCC3)n1)CCCn1cc2c2ccccc21 | 86
* CN(C)c1nc2ccc1CCCn1cc(c3ccccc31)C1=C(C(=O)NC1=O)c1cn(c3ccccc13)CC2 | 103

---

residual activity for assorted compounds
- target_under_test: Mitogen-activated protein kinase 1 (Homo sapiens)
- test_description: Inhibition of MAPK1 at 1 uM relative to control; values are per cent of control
measured_attribute: residual activity

- O=C1NC(=O)C2=C1c1cn(c3ccccc13)CCCc1cc(nc(N3CCCC3)c1)CCCn1cc2c2ccccc21: 99%
- O=C1NC(=O)C2=C1c1cn(c3ccccc13)CCCc1ccc(c(N3CCCC3)n1)CCCn1cc2c2ccccc21: 110%
- CN(C)c1nc2ccc1CCCn1cc(c3ccccc31)C1=C(C(=O)NC1=O)c1cn(c3ccccc13)CC2: 97%
- CN(C)c1cc2cc(n1)CCCn1cc(c3ccccc31)C1=C(C(=O)NC1=O)c1cn(c3ccccc13)CCC2: 86%

---

- target_under_test: Dual specificity mitogen-activated protein kinase kinase 4 (Mus musculus) (UniProt P47809)
- Sequence (P47809 whole entry): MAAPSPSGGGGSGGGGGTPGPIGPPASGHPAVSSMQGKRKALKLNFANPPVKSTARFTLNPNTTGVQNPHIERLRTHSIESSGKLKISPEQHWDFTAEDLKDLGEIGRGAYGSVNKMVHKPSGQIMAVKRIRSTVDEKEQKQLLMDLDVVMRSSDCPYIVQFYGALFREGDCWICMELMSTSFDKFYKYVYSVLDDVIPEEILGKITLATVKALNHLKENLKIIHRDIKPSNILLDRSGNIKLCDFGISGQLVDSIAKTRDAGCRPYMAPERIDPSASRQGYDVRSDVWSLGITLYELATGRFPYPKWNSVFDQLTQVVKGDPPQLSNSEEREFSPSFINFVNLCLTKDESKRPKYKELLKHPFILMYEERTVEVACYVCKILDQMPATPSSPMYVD
- test_description: Inhibition of mouse MKK4 Met at 1 uM relative to control; values are per cent of control
Reported residual activity values for a set of molecules
measured_attribute: residual activity (%)

* O=C1NC(=O)C2=C1c1cn(c3ccccc13)CCCc1ccc(c(N3CCCC3)n1)CCCn1cc2c2ccccc21 | 113
* CN(C)c1nc2ccc1CCCn1cc(c3ccccc31)C1=C(C(=O)NC1=O)c1cn(c3ccccc13)CC2 | 130
* CN(C)c1cc2cc(n1)CCCn1cc(c3ccccc31)C1=C(C(=O)NC1=O)c1cn(c3ccccc13)CCC2 | 119
* O=C1NC(=O)C2=C1c1cn(c3ccccc13)CCCc1cc(nc(N3CCCC3)c1)CCCn1cc2c2ccccc21 | 119

---

Below, each entry is listed with its recorded residual activity.
- target_under_test: Protein kinase C iota type (Homo sapiens) (UniProt P41743)
- Sequence (P41743 whole entry): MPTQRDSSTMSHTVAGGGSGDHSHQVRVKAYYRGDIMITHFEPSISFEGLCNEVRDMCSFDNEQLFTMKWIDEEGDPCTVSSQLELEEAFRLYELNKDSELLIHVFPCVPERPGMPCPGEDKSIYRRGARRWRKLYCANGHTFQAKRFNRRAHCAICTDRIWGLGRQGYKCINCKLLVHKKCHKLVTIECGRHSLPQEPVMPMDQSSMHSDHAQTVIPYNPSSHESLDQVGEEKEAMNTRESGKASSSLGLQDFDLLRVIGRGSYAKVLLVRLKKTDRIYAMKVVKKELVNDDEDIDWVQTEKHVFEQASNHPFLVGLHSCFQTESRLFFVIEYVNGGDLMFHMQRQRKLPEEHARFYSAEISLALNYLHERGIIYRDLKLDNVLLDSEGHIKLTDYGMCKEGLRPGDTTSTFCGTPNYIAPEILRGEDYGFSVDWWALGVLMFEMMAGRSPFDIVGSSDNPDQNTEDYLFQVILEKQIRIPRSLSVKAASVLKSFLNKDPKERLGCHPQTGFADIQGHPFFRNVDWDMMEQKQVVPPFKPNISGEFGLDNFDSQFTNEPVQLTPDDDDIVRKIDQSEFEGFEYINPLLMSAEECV
- test_description: Inhibition of human PKCiota at 1 uM relative to control; values are per cent of control
measured_attribute: residual activity

• CN(C)c1nc2ccc1CCCn1cc(c3ccccc31)C1=C(C(=O)NC1=O)c1cn(c3ccccc13)CC2 = 85%
• O=C1NC(=O)C2=C1c1cn(c3ccccc13)CCCc1ccc(c(N3CCCC3)n1)CCCn1cc2c2ccccc21 = 97%
• CN(C)c1cc2cc(n1)CCCn1cc(c3ccccc31)C1=C(C(=O)NC1=O)c1cn(c3ccccc13)CCC2 = 109%
• O=C1NC(=O)C2=C1c1cn(c3ccccc13)CCCc1cc(nc(N3CCCC3)c1)CCCn1cc2c2ccccc21 = 102%

---

Catalogue of residual activity readings, one per entry.
- Species on record: Homo sapiens
- test_description: Inhibition of human MAPK2 at 1 uM relative to control; values are per cent of control
measured_attribute: residual activity (%)

- O=C1NC(=O)C2=C1c1cn(c3ccccc13)CCCc1cc(nc(N3CCCC3)c1)CCCn1cc2c2ccccc21: 92
- CN(C)c1cc2cc(n1)CCCn1cc(c3ccccc31)C1=C(C(=O)NC1=O)c1cn(c3ccccc13)CCC2: 104
- O=C1NC(=O)C2=C1c1cn(c3ccccc13)CCCc1ccc(c(N3CCCC3)n1)CCCn1cc2c2ccccc21: 88
- CN(C)c1nc2ccc1CCCn1cc(c3ccccc31)C1=C(C(=O)NC1=O)c1cn(c3ccccc13)CC2: 102

---

Entries and their residual activity
- Species on record: Homo sapiens
- test_description: Inhibition of human CDK7/Cyclin H at 1 uM relative to control; values are per cent of control
measured_attribute: residual activity (%)

- CN(C)c1nc2ccc1CCCn1cc(c3ccccc31)C1=C(C(=O)NC1=O)c1cn(c3ccccc13)CC2: 89
- O=C1NC(=O)C2=C1c1cn(c3ccccc13)CCCc1ccc(c(N3CCCC3)n1)CCCn1cc2c2ccccc21: 111
- CN(C)c1cc2cc(n1)CCCn1cc(c3ccccc31)C1=C(C(=O)NC1=O)c1cn(c3ccccc13)CCC2: 108
- O=C1NC(=O)C2=C1c1cn(c3ccccc13)CCCc1cc(nc(N3CCCC3)c1)CCCn1cc2c2ccccc21: 107

---

- Species on record: Homo sapiens
- test_description: Residual activity of human CDK6/Cyclin D at 1 uM relative to control
The compounds listed here are annotated with their residual activity.
measured_attribute: residual activity (%)

- CN(C)c1nc2ccc1CCCn1cc(c3ccccc31)C1=C(C(=O)NC1=O)c1cn(c3ccccc13)CC2: 86
- O=C1NC(=O)C2=C1c1cn(c3ccccc13)CCCc1ccc(c(N3CCCC3)n1)CCCn1cc2c2ccccc21: 92
- O=C1NC(=O)C2=C1c1cn(c3ccccc13)CCCc1cc(nc(N3CCCC3)c1)CCCn1cc2c2ccccc21: 82
- CN(C)c1cc2cc(n1)CCCn1cc(c3ccccc31)C1=C(C(=O)NC1=O)c1cn(c3ccccc13)CCC2: 74

---

- Species on record: Homo sapiens
- test_description: Inhibition of human CDK2/Cyclin E at 1 uM relative to control; values are per cent of control
measured_attribute: residual activity (%)

* O=C1NC(=O)C2=C1c1cn(c3ccccc13)CCCc1ccc(c(N3CCCC3)n1)CCCn1cc2c2ccccc21 | 88
* CN(C)c1nc2ccc1CCCn1cc(c3ccccc31)C1=C(C(=O)NC1=O)c1cn(c3ccccc13)CC2 | 54
* O=C1NC(=O)C2=C1c1cn(c3ccccc13)CCCc1cc(nc(N3CCCC3)c1)CCCn1cc2c2ccccc21 | 88
* CN(C)c1cc2cc(n1)CCCn1cc(c3ccccc31)C1=C(C(=O)NC1=O)c1cn(c3ccccc13)CCC2 | 84

---

residual activity for assorted molecules
- target_under_test: Ephrin type-B receptor 4 (Homo sapiens) (UniProt P54760)
- Sequence (P54760 whole entry): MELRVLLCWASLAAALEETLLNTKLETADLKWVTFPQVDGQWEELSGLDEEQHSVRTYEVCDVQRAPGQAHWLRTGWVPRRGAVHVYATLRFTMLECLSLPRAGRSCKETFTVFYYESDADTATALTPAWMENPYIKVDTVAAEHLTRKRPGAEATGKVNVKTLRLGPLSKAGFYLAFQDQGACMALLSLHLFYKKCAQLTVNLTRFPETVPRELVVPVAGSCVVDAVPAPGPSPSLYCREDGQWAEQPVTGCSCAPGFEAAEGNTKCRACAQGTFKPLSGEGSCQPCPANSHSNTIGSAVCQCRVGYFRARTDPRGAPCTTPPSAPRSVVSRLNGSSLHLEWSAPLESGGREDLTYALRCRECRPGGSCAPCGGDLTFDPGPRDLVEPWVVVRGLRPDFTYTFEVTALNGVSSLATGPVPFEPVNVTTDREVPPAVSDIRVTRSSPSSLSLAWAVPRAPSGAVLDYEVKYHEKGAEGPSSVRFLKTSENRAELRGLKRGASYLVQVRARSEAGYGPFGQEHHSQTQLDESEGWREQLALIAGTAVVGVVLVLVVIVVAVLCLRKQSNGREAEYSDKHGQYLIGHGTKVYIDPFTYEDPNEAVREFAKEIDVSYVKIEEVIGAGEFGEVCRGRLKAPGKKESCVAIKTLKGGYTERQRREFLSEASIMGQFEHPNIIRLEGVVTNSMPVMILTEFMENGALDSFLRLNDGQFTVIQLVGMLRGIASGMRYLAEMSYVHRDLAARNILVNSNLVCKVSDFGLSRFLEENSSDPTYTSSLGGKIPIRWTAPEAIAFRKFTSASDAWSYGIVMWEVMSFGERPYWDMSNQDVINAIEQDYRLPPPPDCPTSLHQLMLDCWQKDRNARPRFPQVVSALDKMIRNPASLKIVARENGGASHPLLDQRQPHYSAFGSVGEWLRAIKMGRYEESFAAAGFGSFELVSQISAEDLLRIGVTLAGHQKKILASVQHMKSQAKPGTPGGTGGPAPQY
- test_description: Residual activity of human EphB4 at 1 uM relative to control
measured_attribute: residual activity (%)

* CN(C)c1cc2cc(n1)CCCn1cc(c3ccccc31)C1=C(C(=O)NC1=O)c1cn(c3ccccc13)CCC2 | 103
* O=C1NC(=O)C2=C1c1cn(c3ccccc13)CCCc1ccc(c(N3CCCC3)n1)CCCn1cc2c2ccccc21 | 100
* CN(C)c1nc2ccc1CCCn1cc(c3ccccc31)C1=C(C(=O)NC1=O)c1cn(c3ccccc13)CC2 | 89
* O=C1NC(=O)C2=C1c1cn(c3ccccc13)CCCc1cc(nc(N3CCCC3)c1)CCCn1cc2c2ccccc21 | 109

---

- Organism: Homo sapiens
- test_description: Residual activity of human PAR1B-alpha at 1 uM relative to control
Quick reference: residual activity of the listed items.
measured_attribute: residual activity (%)

* O=C1NC(=O)C2=C1c1cn(c3ccccc13)CCCc1ccc(c(N3CCCC3)n1)CCCn1cc2c2ccccc21 | 101
* CN(C)c1cc2cc(n1)CCCn1cc(c3ccccc31)C1=C(C(=O)NC1=O)c1cn(c3ccccc13)CCC2 | 100
* O=C1NC(=O)C2=C1c1cn(c3ccccc13)CCCc1cc(nc(N3CCCC3)c1)CCCn1cc2c2ccccc21 | 96
* CN(C)c1nc2ccc1CCCn1cc(c3ccccc31)C1=C(C(=O)NC1=O)c1cn(c3ccccc13)CC2 | 94

---

- target_under_test: Serine/threonine-protein kinase D1 (Homo sapiens)
- test_description: Residual activity of human PKCmu at 1 uM relative to control
measured_attribute: residual activity (%)

* O=C1NC(=O)C2=C1c1cn(c3ccccc13)CCCc1ccc(c(N3CCCC3)n1)CCCn1cc2c2ccccc21 | 113
* O=C1NC(=O)C2=C1c1cn(c3ccccc13)CCCc1cc(nc(N3CCCC3)c1)CCCn1cc2c2ccccc21 | 118
* CN(C)c1cc2cc(n1)CCCn1cc(c3ccccc31)C1=C(C(=O)NC1=O)c1cn(c3ccccc13)CCC2 | 118
* CN(C)c1nc2ccc1CCCn1cc(c3ccccc31)C1=C(C(=O)NC1=O)c1cn(c3ccccc13)CC2 | 110

---

- target_under_test: Insulin-like growth factor 1 receptor (Homo sapiens)
- test_description: Residual activity of human IGF1R at 1 uM relative to control
measured_attribute: residual activity (%)

- O=C1NC(=O)C2=C1c1cn(c3ccccc13)CCCc1cc(nc(N3CCCC3)c1)CCCn1cc2c2ccccc21: 42
- O=C1NC(=O)C2=C1c1cn(c3ccccc13)CCCc1ccc(c(N3CCCC3)n1)CCCn1cc2c2ccccc21: 106
- CN(C)c1nc2ccc1CCCn1cc(c3ccccc31)C1=C(C(=O)NC1=O)c1cn(c3ccccc13)CC2: 84
- CN(C)c1cc2cc(n1)CCCn1cc(c3ccccc31)C1=C(C(=O)NC1=O)c1cn(c3ccccc13)CCC2: 37

Entry source: ChEMBL document CHEMBL1139192
